Source: ChEMBL document CHEMBL2401620

assay: Cytotoxicity against human MT4 cells after 5 days by MTT assay; type: cell-based
We label by threshold. Values of CC50 at 120 h strictly beneath 30 µM are True. Values of 30 µM and up are False.

Observe how each entry below is paired with its result.
smilesStructure	classAssignment
COc1ccc(C(=O)c2ccccc2)c(Oc2ccnc(Nc3ccc(C#N)cc3)n2)c1	True
Cc1ccccc1C(=O)c1cc(Cl)ccc1Oc1nc(Nc2ccc(C#N)cc2)ncc1C	True
COCCc1ccc(Oc2nc(Nc3ccc(C#N)cc3)ncc2C)cc1	False
Cc1cc(Oc2ccc(Cl)cc2C(=O)c2ccccc2C)nc(Nc2ccc(C#N)cc2)n1	True
Cc1cnc(Nc2ccc(C#N)cc2)nc1Oc1ccc(OCc2ccccc2)cc1	False
Cc1cc(C)cc(C(=O)c2cc(Cl)ccc2Oc2ccnc(Nc3ccc(C#N)cc3)n2)c1	True

query: Find out if reported CC50 at 120 h for COc1ccc(C(=O)c2ccccc2)c(Oc2cc(C)nc(Nc3ccc(C#N)cc3)n2)c1 is less than 30 µM
result: True

query: Can you handle COCCc1ccc(Oc2ccnc(Nc3ccc(C#N)cc3)n2)cc1 next?
result: False

---

target: Human immunodeficiency virus type 1 reverse transcriptase (Human immunodeficiency virus 1, UniProt Q72547, K103N/Y181C); assay: Inhibition of HIV RT K103N/Y181C mutant by cell based assay
observable: pEC50
One number for each entry, as −log10 of the molar value.

query: Item Cc1cc(/C=C/C#N)cc(C)c1Nc1ccnc(Nc2ccc(C#N)cc2)n1 has what recorded pEC50?
result: 9.10

---

test: Selectivity index, ratio of CC50 for human MT4 cells to EC50 for HIV1 3B; assay type: toxicity, cell-based; settings: read-out: Ratio CC50/EC50
observable: selectivity ratio
Answers are plain numbers.

The cases that follow already have their selectivity ratio on record.
smilesStructure	valueObserved
COCCc1ccc(Oc2cc(C)nc(Nc3ccc(C#N)cc3)n2)cc1	18
Cc1cc(C)cc(C(=O)c2cc(Cl)ccc2Oc2ccnc(Nc3ccc(C#N)cc3)n2)c1	36
Cc1ccccc1C(=O)c1cc(Cl)ccc1Oc1nc(Nc2ccc(C#N)cc2)ncc1C	22
Cc1cc(Oc2ccc(OCc3ccccc3)cc2)nc(Nc2ccc(C#N)cc2)n1	6
Cc1cc(C)cc(C(=O)c2cc(Cl)ccc2Oc2nc(Nc3ccc(C#N)cc3)ncc2C)c1	9
COCCc1ccc(Oc2ccnc(Nc3ccc(C#N)cc3)n2)cc1	359
Cc1cnc(Nc2ccc(C#N)cc2)nc1Oc1ccc(OCc2ccccc2)cc1	29
Cc1ccccc1C(=O)c1cc(Cl)ccc1Oc1ccnc(Nc2ccc(C#N)cc2)n1	21

Query molecule follows.
query: Item N#Cc1ccc(Nc2nccc(Oc3ccc(C(=O)c4ccc(O)cc4)cc3)n2)cc1 has what recorded selectivity ratio?
result: 7

---

assay: Cytotoxicity against human MT4 cells after 5 days by MTT assay; type: cell-based
Hi there, I'd appreciate the recorded CC50 at 120 h for every entry that follows.
Numbers only, in µM.

The cases that follow already have their CC50 at 120 h on record.
smilesStructure	quantityUnit	CC50 at 120 h
N#Cc1ccc(Nc2nccc(Oc3ccc(C(=O)c4ccc(O)cc4)cc3)n2)cc1	µM	19.4
Cc1cc(Oc2ccc(OCc3ccccc3)cc2)nc(Nc2ccc(C#N)cc2)n1	µM	27.7
Cc1ccc(C(=O)c2cc(Cl)ccc2Oc2ccnc(Nc3ccc(C#N)cc3)n2)cc1	µM	1.71
COc1ccc(C(=O)c2ccccc2)c(Oc2nc(Nc3ccc(C#N)cc3)ncc2C)c1	µM	7.42
Cc1ccc(C(=O)c2cc(Cl)ccc2Oc2cc(C)nc(Nc3ccc(C#N)cc3)n2)cc1	µM	26.6
Cc1cc(C)cc(C(=O)c2cc(Cl)ccc2Oc2cc(C)nc(Nc3ccc(C#N)cc3)n2)c1	µM	37.1

query: Item Cc1ccccc1C(=O)c1cc(Cl)ccc1Oc1ccnc(Nc2ccc(C#N)cc2)n1 has what recorded CC50 at 120 h?
result: 28.8

---

assay: Cytotoxicity against human MT4 cells after 5 days by MTT assay; assay type: cell-based
Hi there, I'd appreciate the recorded CC50 at 120 h for every entry that follows.
Numbers only, in µM.

The cases that follow already have their CC50 at 120 h on record.
smilesStructure	CC50 at 120 h, µM
Cc1cc(C)cc(C(=O)c2cc(Cl)ccc2Oc2nc(Nc3ccc(C#N)cc3)ncc2C)c1	13.4
COCCc1ccc(Oc2cc(C)nc(Nc3ccc(C#N)cc3)n2)cc1	13.8

query: Item Cc1cc(Oc2ccc(C(=O)c3ccc(O)cc3)cc2)nc(Nc2ccc(C#N)cc2)n1 has what recorded CC50 at 120 h?
result: 32

---

molecular target: Human immunodeficiency virus type 1 reverse transcriptase (Human immunodeficiency virus 1); assay: Inhibition of recombinant wild type HIV1 RT using poly(rA)/oligo(dT)16 as template after 40 mins by spectrofluorometric analysis
observable: IC50
Record the result as number plus unit.

smilesStructure	valueObserved
Cc1cnc(Nc2ccc(C#N)cc2)nc1Oc1ccc(C(=O)c2ccc(O)cc2)cc1	5.21 µM
Cc1ccccc1C(=O)c1cc(Cl)ccc1Oc1ccnc(Nc2ccc(C#N)cc2)n1	3.45 µM
COCCc1ccc(Oc2ccnc(Nc3ccc(C#N)cc3)n2)cc1	2.69 µM
N#Cc1ccc(Nc2nccc(Oc3ccc(OCc4ccccc4)cc3)n2)cc1	31 µM
Cc1cc(C)cc(C(=O)c2cc(Cl)ccc2Oc2ccnc(Nc3ccc(C#N)cc3)n2)c1	3.22 µM
COCCc1ccc(Oc2cc(C)nc(Nc3ccc(C#N)cc3)n2)cc1	11.6 µM
Cc1ccccc1C(=O)c1cc(Cl)ccc1Oc1nc(Nc2ccc(C#N)cc2)ncc1C	5.23 µM
Cc1cc(Oc2ccc(OCc3ccccc3)cc2)nc(Nc2ccc(C#N)cc2)n1	17.4 µM

For the 3 molecules below, give their IC50 values.
1. N#Cc1ccc(Nc2nccc(Oc3ccc(C(=O)c4ccc(O)cc4)cc3)n2)cc1
2. Cc1cc(C)cc(C(=O)c2cc(Cl)ccc2Oc2nc(Nc3ccc(C#N)cc3)ncc2C)c1
3. COCCc1ccc(Oc2nc(Nc3ccc(C#N)cc3)ncc2C)cc1

result:
7.13 µM
3.06 µM
1.27 µM

query: Item Cc1cc(Oc2ccc(C(=O)c3ccc(O)cc3)cc2)nc(Nc2ccc(C#N)cc2)n1 has what recorded IC50?
result: 16.9 µM

---

assay: Selectivity index, ratio of CC50 for human MT4 cells to EC50 for HIV1 3B; assay type: toxicity, cell-based; conditions: read-out: Ratio CC50/EC50
Hi there, I'd appreciate the recorded selectivity ratio for every entry that follows.

The cases that follow already have their selectivity ratio on record.
smilesStructure	observable	valueObserved
Cc1cnc(Nc2ccc(C#N)cc2)nc1Oc1ccc(C(=O)c2ccc(O)cc2)cc1	selectivity ratio	> 82
Cc1ccc(C(=O)c2cc(Cl)ccc2Oc2cc(C)nc(Nc3ccc(C#N)cc3)n2)cc1	selectivity ratio	< 1
Cc1cc(Oc2ccc(C(=O)c3ccc(O)cc3)cc2)nc(Nc2ccc(C#N)cc2)n1	selectivity ratio	≤ 6
COc1ccc(C(=O)c2ccccc2)c(Oc2cc(C)nc(Nc3ccc(C#N)cc3)n2)c1	selectivity ratio	< 1
Cc1ccc(C(=O)c2cc(Cl)ccc2Oc2nc(Nc3ccc(C#N)cc3)ncc2C)cc1	selectivity ratio	< 1

For the 5 compounds below, give their selectivity ratio values.
1. N#Cc1ccc(Nc2nccc(Oc3ccc(OCc4ccccc4)cc3)n2)cc1
2. COc1ccc(C(=O)c2ccccc2)c(Oc2nc(Nc3ccc(C#N)cc3)ncc2C)c1
3. COc1ccc(C(=O)c2ccccc2)c(Oc2ccnc(Nc3ccc(C#N)cc3)n2)c1
4. Cc1cc(C)cc(C(=O)c2cc(Cl)ccc2Oc2cc(C)nc(Nc3ccc(C#N)cc3)n2)c1
5. Cc1ccc(C(=O)c2cc(Cl)ccc2Oc2ccnc(Nc3ccc(C#N)cc3)n2)cc1

result:
1. > 7
2. ≤ 2
3. < 1
4. < 1
5. < 1

For the 3 compounds below, give their selectivity ratio values.
1. Cc1cn([C@H]2C[C@H](N=[N+]=[N-])[C@@H](CO)O2)c(=O)[nH]c1=O
2. COCCc1ccc(Oc2nc(Nc3ccc(C#N)cc3)ncc2C)cc1
3. Cc1cc(Oc2ccc(Cl)cc2C(=O)c2ccccc2C)nc(Nc2ccc(C#N)cc2)n1

result:
1: > 14400; 2: > 6260; 3: < 1

---

assay: Cytotoxicity against human MT4 cells after 5 days by MTT assay; type: cell-based
Hi there, I'd appreciate the recorded CC50 at 120 h for every entry that follows.

smilesStructure	CC50 at 120 h
Cc1cnc(Nc2ccc(C#N)cc2)nc1Oc1ccc(C(=O)c2ccc(O)cc2)cc1	> 296 µM
O=C1Nc2ccc(Cl)cc2[C@@](C#CC2CC2)(C(F)(F)F)O1	> 6.34 µM

Query molecule follows.
query: Item N#Cc1ccc(Nc2nccc(Oc3ccc(OCc4ccccc4)cc3)n2)cc1 has what recorded CC50 at 120 h?
result: > 317 µM
